Where do the numbers come from? From PubChem BioAssay AID620.

Test: HT1080 cell viability loss – fluorescence readout (AID 620);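 note: cells exposed to compound overnight then 4 h with Alamar Blue; 0% = vehicle DMSO and 100% = killing control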
Settings: at 10 µM
In all, about 87,000 compounds went through this assay and about 360 (0.41%) were called active. Cut-off read from the data, not from the text of the source: active = cytotoxicity above about 50%; inactive = the rest. The list comes from a sample in which actives are over-represented; it also holds close analogues and randomly drawn compounds.
Hello, when you answer, please use one of the following outcomes: active, inactive

Consider the following illustrative entries.
Ask | Hi team, can someone confirm the assay call for Cc1cc(C)c2nc(SCC(=O)Nc3ccccc3N3CCOCC3)c(C#N)cc2c1 ?
Reply | inactive

Ask | Hi team, can someone confirm the assay call for Cc1cc(C)c2nc(SCC(=O)N3CC(=O)Nc4ccccc43)c(C#N)cc2c1 ?
Reply | active

Ask | Hi team, can someone confirm the assay call for COc1ccc(C2=NOC(C(=O)NCc3ccco3)C2)cc1 (stereo not drawn) ?
Reply | inactive

# input for lookup
Ask | Hi team, can someone confirm the assay call for Cc1nnc(SCC(=O)Nc2ccc3c(c2)OCO3)o1 ?
Reply | inactive

----------
The following compounds are shown together with reported cytotoxicity values.
Experiment: HT1080 cell viability loss – fluorescence readout (AID 620)
Conditions: at 10 µM, hits give high values
The whole screen tested about 87,000 compounds, of which about 360 (0.41%) were called active. The list comes from a sample in which actives are over-represented; it also holds close analogues and randomly drawn compounds.
// return numeric value only (unit: %, not printed)

The cases that follow already have their cytotoxicity on record.
Ask | Returns the measured cytotoxicity for the input compound. Input: Cc1cc(C(=O)OCC(=O)N2CCN(C(=O)c3ccco3)CC2)c(C)n1-c1ccc(F)cc1
Reply | -4.9

Ask | Returns the measured cytotoxicity for the input compound. Input: CCn1cnc2scc(-c3ccccc3)c2c1=O
Reply | 6

Ask | Returns the measured cytotoxicity for the input compound. Input: CCOCCCNC(=O)C1CCN(S(=O)(=O)N2CCCCC2)CC1
Reply | 1.1

Ask | Returns the measured cytotoxicity for the input compound. Input: Cc1cccc(N2CCN(C(=O)c3ccc(Cl)c(S(=O)(=O)NCc4ccco4)c3)CC2)c1C
Reply | 26.2

Ask | Returns the measured cytotoxicity for the input compound. Input: Cc1cccc(-n2nnnc2SCC(=O)NCCN2C(=O)CSC2=O)c1
Reply | -3.3

---
Ask | Returns the measured cytotoxicity for the input compound. Input: CN1CCN(CCCN2c3ccccc3Sc3ccc(Cl)cc32)CC1
Reply | 6

Ask | Returns the measured cytotoxicity for the input compound. Input: COc1ccc(S(=O)(=O)Cc2ccc(C(=O)NCc3ccc(F)cc3)o2)cc1
Reply | -10.5

Ask | Returns the measured cytotoxicity for the input compound. Input: CN(C(=O)c1cc2n(n1)C(C(F)(F)F)CC(c1ccco1)N2)c1ccccc1 (configuration not stated)
Reply | 56.4

Ask | Returns the measured cytotoxicity for the input compound. Input: COc1ccccc1N1CCN(C(=O)c2ccc(Cl)c(S(=O)(=O)NCc3ccco3)c2)CC1
Reply | 56.3

Ask | Returns the measured cytotoxicity for the input compound. Input: CCOC(=O)COc1ccc(S(=O)(=O)N2CCN(c3ccccc3F)CC2)cc1
Reply | -0.3

Ask | Returns the measured cytotoxicity for the input compound. Input: O=C(NC1CCCCCC1)c1cc2n(n1)C(C(F)(F)F)CC(c1ccco1)N2 (configuration not stated)
Reply | -4.1

Ask | Returns the measured cytotoxicity for the input compound. Input: c1ccc(CNCCN2CCNCC2)nc1
Reply | 6.5

----------
Assay: HT1080 cell viability loss – fluorescence readout (AID 620);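 note: cells exposed to compound overnight then 4 h with Alamar Blue; 0% = vehicle DMSO and 100% = killing control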
Conditions: at 10 µM, hits give high values
Out of some 87,000 compounds screened, about 360 (0.41%) were called active. Many of the other results were omitted from the sample, so actives are more common in it than they were.
parameter: cytotoxicity

The cases that follow already have their cytotoxicity on record.
Ask | Returns the measured cytotoxicity for the input molecule. Input: Cc1cc(NC(=O)c2ccco2)ccc1-n1cnnn1
Reply | -8.1% (inactive)

Ask | Returns the measured cytotoxicity for the input molecule. Input: Cc1ccc(-c2noc(CCCN3C(=O)c4ccccc4C3=O)n2)cc1
Reply | -3.5% (inactive)

Ask | Returns the measured cytotoxicity for the input molecule. Input: Clc1ccccc1-c1nnc2sc(-c3ccncc3)nn12
Reply | -1.3% (inactive)

Ask | Returns the measured cytotoxicity for the input molecule. Input: COc1cc(NC(=O)c2nccnc2C(=O)O)cc(OC)c1
Reply | -8% (inactive)

Ask | Returns the measured cytotoxicity for the input molecule. Input: COc1ccc(C(=O)Oc2ccc(/C=N/O)cc2)cc1
Reply | 2.6% (inactive)

---
Ask | Returns the measured cytotoxicity for the input molecule. Input: Cc1ccc(OCc2nn3c(-c4n[nH]c5c4CCC5)nnc3s2)cc1
Reply | 3.7% (inactive)

Ask | Returns the measured cytotoxicity for the input molecule. Input: CCOC(=O)c1c(C)sc2c1N(C(C)=O)c1cc(Cl)ccc1S2
Reply | 17.6% (inactive)

Ask | Returns the measured cytotoxicity for the input molecule. Input: CCc1ccccc1NS(=O)(=O)c1ccc2[nH]cc(C(=O)NCC3CCCO3)c(=O)c2c1 (stereo not given)
Reply | 3.1% (inactive)

Ask | Returns the measured cytotoxicity for the input molecule. Input: Cn1c(=O)[nH]c(=O)c2c1nc(CN1CCN(c3ccccc3F)CC1)n2CC(N)=O
Reply | -7.3% (inactive)

Ask | Returns the measured cytotoxicity for the input molecule. Input: Cc1cc(NC(=O)c2oc3ccccc3c2C)ccc1-n1cnnn1
Reply | 75.3% (active)

----------
Assay: HT1080 cell viability loss – fluorescence readout (AID 620);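 note: cells exposed to compound overnight then 4 h with Alamar Blue; 0% = vehicle DMSO and 100% = killing control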
Settings: at 10 µM, hits give high values
Out of some 87,000 compounds screened, about 360 (0.41%) were called active. What follows is part of a selection rich in actives, with near analogues and random picks from the rest.
The following compounds are shown together with reported cytotoxicity values.
// return numeric value only (unit: %, not printed)

The cases that follow already have their cytotoxicity on record.
Ask | Returns the measured cytotoxicity for the input compound. Input: Cc1c(C(=O)N2CCOCC2)[nH]c2c1C(=O)CC(c1ccc(Cl)cc1)C2 (centres undefined)
Reply | 5.8

Ask | Returns the measured cytotoxicity for the input compound. Input: COCCOC(=O)c1[nH]c2c(c1C)C(=O)CC(c1cc(OC)ccc1OC)C2 (centres undefined)
Reply | -3.5

Ask | Returns the measured cytotoxicity for the input compound. Input: CC(C)COc1ccc(CNC(=S)N/N=C/c2ccc([N+](=O)[O-])cc2)cc1
Reply | -12.7

Ask | Returns the measured cytotoxicity for the input compound. Input: Cc1c(C(=O)OCC2CCCO2)[nH]c2c1C(=O)CC(c1ccc(N(C)C)cc1)C2 (centres undefined)
Reply | -2.7

Ask | Returns the measured cytotoxicity for the input compound. Input: CC(C)CNS(=O)(=O)c1ccc(CCC(=O)N2CCOCC2)cc1
Reply | 2.1

---
Ask | Returns the measured cytotoxicity for the input compound. Input: COc1cc2c(cc1OC)C1Cc3ccc(OC)c(OC)c3CN1CC2 (centres undefined)
Reply | -0.8

Ask | Returns the measured cytotoxicity for the input compound. Input: CCn1c(SCC(=O)c2ccc(NS(=O)(=O)c3ccccc3)cc2)nnc1-c1cccs1
Reply | -0.1

Ask | Returns the measured cytotoxicity for the input compound. Input: Cc1cccc2cc(C#N)c(SCC(=O)N3CCC(C)CC3)nc12
Reply | -4.3

Ask | Returns the measured cytotoxicity for the input compound. Input: O=C(Nc1cc(C(F)(F)F)ccc1N1CCOCC1)c1ccc[n+]([O-])c1
Reply | 8.9

----------
Assay: HT1080 cell viability loss – fluorescence readout (AID 620);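 note: cells exposed to compound overnight then 4 h with Alamar Blue; 0% = vehicle DMSO and 100% = killing control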
Conditions: at 10 µM, hits give high values
Screen size: about 87,000 compounds; about 360 (0.41%) were called active. This excerpt belongs to a sample that is enriched for actives.
parameter: cytotoxicity (%)
// return numeric value only (unit: %, not printed)

The cases that follow already have their cytotoxicity on record.
Ask | Returns the measured cytotoxicity for the input molecule. Input: Cc1cc(C)c(S(=O)(=O)NCC2CCC(C(=O)NCCCN3CCOCC3)CC2)c(C)c1 (stereo not given)
Reply | 2.9

Ask | Returns the measured cytotoxicity for the input molecule. Input: CCC(=O)N1CCN(c2ccc(NC(=O)c3cc4ccccc4o3)cc2)CC1
Reply | 1.3

Ask | Returns the measured cytotoxicity for the input molecule. Input: CC(=O)c1ccc(NC(=O)c2ccn[nH]2)cc1
Reply | -0.3

Ask | Returns the measured cytotoxicity for the input molecule. Input: Cc1ccc(-c2csc3ncn(/N=C/N(C)C)c(=O)c23)o1
Reply | 1.3

Ask | Returns the measured cytotoxicity for the input molecule. Input: CCOC(=O)C(C)Oc1cccc2c(=O)n(CC(=O)N3CCc4ccccc43)ccc12 (stereo not given)
Reply | 4.2

---
Ask | Returns the measured cytotoxicity for the input molecule. Input: FC(F)(F)c1cc(-c2ccco2)nc(-n2nnc3ccccc32)n1
Reply | -10.9

Ask | Returns the measured cytotoxicity for the input molecule. Input: CN(C(=O)c1cc2n(n1)C(C(F)(F)F)CC(c1ccco1)N2)c1ccc(OC(F)(F)F)cc1 (stereo not given)
Reply | -1.6

Ask | Returns the measured cytotoxicity for the input molecule. Input: CCOC(=O)C(C)Oc1cccc2c(=O)n(CC(=O)NCc3ccco3)ccc12 (stereo not given)
Reply | 65.3
